The origin of these recorded values is the nanobody polyreactivity screen of Harvey et al. (2022).

Assay: yeast display, Sf9 membrane polyspecificity reagent, FACS + sequencing; frameworks hold sequencing errors

# Sequence Text, polyreactivity (PSR sort gate)
rows = [
    ("QVQLVESGGGLVQAGGSLRLSCAASGNILASNAMGWYRQAPGKERELVAAITISGDTTYYADSVKGRFTISRDNAKNTVYLQMNSLKPEDTAVYYCNAVSFIVNGGYDGDYWGQGTQVTVSS", "low polyreactivity"),
    ("QVQLVESGGGLVQAGGSLRLSCAASGIIFYYYAMGWYSPAPGKERELVAAISSGGSTYYADSVKGRFTISRDNAKNTVYLQMNSLKPEDTAVYYCAADPLYTIDIEYSTYGDFDYWGQGTQVTVSS", "low polyreactivity"),
    ("QVQLVESGGGLVQAGGSLRLSCAASGYILQKYAMGWYRQAPGKERELVATISGGGGSTYYADSVKGRFTISRDNAKNTVYLLMNSLKPEDTAVYYCAKEYPWLPRSYEYWGQGTQVSVSS", "low polyreactivity"),
    ("QVQLVDSGGGLVQAGGSLRISCAASGRNFGYNAMGSYRQAPGKERELVAAISSGGSTYYADSVKGLFTISRDNAKNTVYLQINSLKPEDTAVYFCAAEDYPPYPTDYDYWGQGSQVTVSS", "low polyreactivity"),
]

---

Assay: yeast display, Sf9 membrane polyspecificity reagent, FACS + sequencing; frameworks hold sequencing errors

# Sequence Text, polyreactivity (PSR sort gate)
data = [
    ("QVQLVESGGGLVQAGGSLSLSCAASGFIFVPYAMGLSRQAPGKERELVARITWSGGRTYYADSVKGRFTISRDNAKNTVYLQLNSLKPEDTAVYYCNADVYGFDYWGQGTQVTVSS", "high polyreactivity"),
    ("QVHLVESGGGLVQAGGSLRLSCAASGLIFVYNAMGWYRQAPGKERELVAGITSGGSTYYADSVKGRFTISRDNAKNTVYLQMNSLKPEDTAVSYCAAGYYDLYLWWGYDYWGQGTQVTVSS", "high polyreactivity"),
    ("QVQLVESGGGLVQAGGSLRLSCAASGSIFGGYAMGWYRQAPGKERELVAAIDESGGSTYYADSVKGRFTISRDNAKNTVYLQMNSLKPDDTAVDYCLVFRDDSGPGDYYYWGQGTQVTVSS", "low polyreactivity"),
    ("QDQLVESGGGLVQAGGSLRLSCAASGNIFPSYVMGWYRQAPGKERELVAAITWKGGSTYYADSVKGRFTISRDNAKNTVYLQMNSLKPEDTAVYYCNAVGNLYSRDDYWGQGTQVTVSS", "low polyreactivity"),
    ("QVQLVESGGGLVQAGGSLRLSCAASGSIFGSYAMGWYRQAPGKERELVAAIRWRGGSTYYADSVKGRFTISRDNAKNTVYLQMNSLKPEDTAVYYCNAVTHYPVWVSGVGYDYWGQGTQVTVSS", "high polyreactivity"),
]

---

Assay: yeast display, Sf9 membrane polyspecificity reagent, FACS + sequencing; frameworks hold sequencing errors

# Sequence Text, polyreactivity (PSR sort gate)
data = [
    ("QVQLVESGGGLVQAGGSLRLSCAASGITSWYYAMGWYRQAPGKERELVAAITSDGRTNYADSVMGRFTISRDNAKNTVYLQMNSLKPEDTAVYYCAVARYPYRYDYWGQGTQVTVSS", "high polyreactivity"),
    ("QVQHVESGGGLVQAGGSLRLSCAASGSIFRYNARGWYRQAPGKERELVAAISSSGGRTYYADSVKGRFTISRDNAKNTVYLQMNSLKPEDTAVYYCATADTRRFTYGYYYWGQGTQVTVSS", "high polyreactivity"),
    ("QVQLVESGGGLVQAGGSLRLSCAASGITFYDNVMGWYRQAPGKERELVAAITSGGSTNYADSVKGRFTISRDNAKNTVYLQMNSLKPEDTAVYYCAAQTRVDYEFPYRYGYWGQGTQVTVSS", "low polyreactivity"),
    ("QVQLVESGGGLVQAGGSLRLSCAASGFILLDNGMGWYREAPGKERELVAAITYSGDTTYYADSVKGRFTISRDNAKNTVYLQMNSLKPEDTAVYYCNADNDKWTTGHDYWGQGTQVTVSS", "low polyreactivity"),
    ("QVQHVESVGGLDQAGVSLRLSSSASGITFSYNAMGCSRQAPGKESEFVAAISSNSDSTYYADSVKGRFTISRDNAKNTVYLQMNSLKPEDTAVYYCAAETPDAPDYSGFYYWGQGTQVTVSS", "low polyreactivity"),
]
